Where do the numbers come from? From patent US6753297B2.

# Tested on: Swingtime Fuchsia
# Experiment: Root growth of Swingtime Fuchsia cuttings in hydroponic auxin solution
# Assay type: in vivo, Fuchsia hybrida
# Experimental parameters: Swingtime Fuchsia (SF), 10^−7 M; R = (ISAx − H2O)/(IBA − H2O), average root growth per cutting
Value kind: Enhancement Ratio
Number, no unit, nothing else.

Can you look up Enhancement Ratio on Swingtime Fuchsia for O=C(O)C[C@H](C(=O)O)c1c[nH]c2ccccc12 [(S)-ISA, (S)-indole-3-succinic acid] ?
5.7

Can you look up Enhancement Ratio on Swingtime Fuchsia for O=C(O)CC(C(=O)O)c1c[nH]c2ccccc12 (racemic) [Racemic ISA, indole-3-succinic acid] ?
7.0

Can you look up Enhancement Ratio on Swingtime Fuchsia for O=C(O)Cc1c[nH]c2ccccc12 [IAA, indole-3-acetic acid, reference compound] ?
0

Can you look up Enhancement Ratio on Swingtime Fuchsia for O=C(O)C[C@@H](C(=O)O)c1c[nH]c2ccccc12 [(R)-ISA, (R)-indole-3-succinic acid] ?
5.6
